Here the recorded reverse-splicing fitness is given for each entry.
B1: Azoarcus group I ribozyme (parent)
chain: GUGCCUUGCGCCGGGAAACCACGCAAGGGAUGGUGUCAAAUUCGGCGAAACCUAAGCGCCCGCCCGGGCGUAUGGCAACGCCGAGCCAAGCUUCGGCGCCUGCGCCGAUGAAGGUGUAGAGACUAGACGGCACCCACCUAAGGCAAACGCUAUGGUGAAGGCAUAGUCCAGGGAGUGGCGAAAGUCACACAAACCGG

- Variants of: B1
- method-summary: reverse-splicing fitness (ratio to wild type); higher = more active; in vitro selection; Mg2+ level not given

Answered cases to consult:
>>> observed("A111C A120U A145C C150G C169A U176A")
0.00246
>>> observed("C82G A111G A120G A145G C150U C169G U176G")
0.00532
>>> observed("C82A A111C A120G A145U C169U U176C")
0.0118
>>> observed("C82G A120U A145G C150A C169G U176C")
0.00422
>>> observed("C82G A111C A145U C150A C169G U176G")
0.0081
>>> observed("C82A A111G A120G C150U C169A U176C")
0.0173

Then this variant:
Value of reverse-splicing fitness reported for the variant A120U A145C C150U C169G U176C is 0.0135
